Ref: ChEMBL document CHEMBL1156729

protocol.text: Displacement of [3H]RX821002 from alpha2 adrenoceptor in human prefrontal cortex neural membrane
Type: tissue-based
measure.name: pKi

molecule | pKi
N=C(N)Oc1ccc(Sc2ccc(O)cc2)cc1 | 4.94

(A) N=C(N)Oc1ccc(Cc2ccc(OC(=N)N)cc2)cc1
(B) COC1(C2=NCCN2)COc2ccccc2O1 (stereo unspecified)
Request: Between the entries labeled A and B , whose measured pKi is lower? Respond using the label that marks the chosen record.
Response: A

* * *

protocol.text: Displacement of [3H]RX821002 from alpha2 adrenoceptor in human prefrontal cortex neural membrane
Type: tissue-based
measure.name: pKi

smiles.repr | measure.name | measured.value
N=C(N)Oc1ccc(Oc2ccc(O)cc2)cc1 | pKi | 4.49
N=C(N)Oc1ccc(Cc2ccc(O)cc2)cc1 | pKi | 4.98
N=C(N)Oc1ccc(Sc2ccc(OC(=N)N)cc2)cc1 | pKi | 5.1
N=C(N)Oc1ccc(Oc2ccc(OC(=N)N)cc2)cc1 | pKi | 4.72
N=C(N)Oc1ccc2c(c1)CCCC2 | pKi | 5.35
Cc1ccc(OC(=N)N)cc1 | pKi | 5.09
N=C(N)Nc1ccc2c(c1)CCCC2 | pKi | 7.11
N=C(N)Oc1ccc2c(c1)CCC2 | pKi | 5.27
